- experiment summary: protein stability index of a GFP-peptide fusion (yeast GPS) (PSI 1-4); higher = more stable; sorted into four equal gates, so the index is relative within each strain
- condition notes: pdr5∆
result type: protein stability index
Give bare numbers.

Past entries and their recorded results:
DDSFFNETNDKKRNPSK [PRP28] :: 2.96
GASTVMKTKTINAQGEE [PRP8] :: 3.06
NTTQDNGGDKELEMIGG [YCS4] :: 3.06
RTTTNTTAEPKAKRAKT [TAF14] :: 2.98
DELITEGNEKLAAVPAA [RPP2A] :: 2.92
DVKTAEEASQLIEYMEN [NUT1] :: 3.04

Count: 5. Required value per item: protein stability index.
1. VSQQPLSRGYTCPGLSL [ECM29]
2. EKADYEDEMMHEEDQKT [RPN12]
3. NTAAALVSLLDENDSKK [YAR002W/NUP60]
4. SSASPSALTSPTDSSKI [SIR3]
5. DPASFYLFDEIDAALDK [SMC3]

a:
1. 2.97
2. 2.97
3. 2.95
4. 3.08
5. 3.02

====

Exercise: state measured protein stability index for each of the sequences provided.
- experiment summary: protein stability index of a GFP-peptide fusion (yeast GPS) (PSI 1-4); higher = more stable; sorted into four equal gates, so the index is relative within each strain
- condition notes: pdr5∆
One number for each entry.

Past entries and their recorded results:
KNWQNVGSLVVKSSMGP [RPL1A] :: 2.39
LKLCVQELEKRMPMDFK [PRE1] :: 3.34
RNIILEARFDVLITSYE [ISW2] :: 2.22

Count: 6. Required value per item: protein stability index.
1. SKEKANFLETIASTEKP [SIR4]
2. SFYRVEKIKKINYHQYI [SSN2]
3. NQIPVTEHSKVTRFDEK [SRB6]
4. KLSCIQLNCIDTQFTKL [SRB8]
5. PENTAMFNPLHESYCLP [YMR129W/POM152]
6. VNISAVDNTTEQSNSRK [YCG1]

a:
2.28
1.36
3.02
1.92
2.66
2.35

====

- experiment summary: protein stability index of a GFP-peptide fusion (yeast GPS) (PSI 1-4); higher = more stable; sorted into four equal gates, so the index is relative within each strain
- condition notes: doa10∆
result type: protein stability index
Numbers only.

Past entries and their recorded results:
TSFDRTKKTITPMGGFV [RPL3] :: 3.04
KLKEMQKVLNAHRQRAM [SMC4] :: 1.84
PINLKFLQGESPFSITF [YMR129W/POM152] :: 2.53
FDRLVAGQIPTGWNAKT [FAS2] :: 2.15
ILEEKTDLHLPKKEYDD [NSL1] :: 1.76

Count: 6. Required value per item: protein stability index.
1. SGGEREIQRTMLELLNQ [RPT2]
2. DTSAEKDQIQAGKWFDP [SIR4]
3. TETKRLVVIRFGRKNDR [DIB1]
4. GNAVTVTEDGTVVTVVS [RPL22A]
5. FQNTNTRSALKLVRESE [QCR2]
6. RSLASFEQTAFSRHAQQ [SIR4]

a:
[3.46, 3.51, 2.87, 1.38, 2.7, 2.84]

Count: 2. Required value per item: protein stability index.
1. LFEQIGIRIKGKIVGFD [SME1]
2. KFKKEKFDIIIVDTSGR [SRP54]

a:
1. 1.92
2. 2.84

====

- experiment summary: protein stability index of a GFP-peptide fusion (yeast GPS) (PSI 1-4); higher = more stable; sorted into four equal gates, so the index is relative within each strain
- condition notes: san1∆
Exercise: state measured protein stability index for each of the sequences provided.
Give bare numbers.

Past entries and their recorded results:
IHVLEQDGGIMGSLING [SKI6] :: 3.36
YGFEDESAPITAEDSWA [RPB2] :: 3.35
LKSESATSQYLKQDLKK [YGL172W/NUP49] :: 2.9
RERIRKGLQIYQSSVQE [PRP8] :: 1.81
KPGRMPFNFTVTLFQMA [CDC53] :: 2.17

Count: 4. Required value per item: protein stability index.
1. KKISRLPKFLTVQYVRF [UBP6]
2. DQFIRHVLRGVESPDKN [YCG1]
3. GTGRAVARIPRVGGGGT [RPL4A]
4. KIEGVATPQEAQFYLGK [RPL33B]

a:
1.28
3.18
2.68
2.91

Count: 2. Required value per item: protein stability index.
1. SEVGNCSGSGMGGVSAL [FAS2]
2. MKRADKFKDMGIRAPKG [RPT5]

a:
1. 3.29
2. 2.98

====

Exercise: state measured protein stability index for each of the sequences provided.
- experiment summary: protein stability index of a GFP-peptide fusion (yeast GPS) (PSI 1-4); higher = more stable; sorted into four equal gates, so the index is relative within each strain
- condition notes: ubr1∆
Answers are plain numbers.

KLQKYGAAVRLTGSDRV [RPN7] :: 2.99
YLQETAISGKKTTYYYY [RPC82] :: 3.07
NIVNDFTPEEEAAIRRE [SKP1] :: 3.02
VARTFWASKYGQEYPRI [BRR2] :: 3.06
REIQIDAVLKIFSFHQD [SRB8] :: 3.04

Count: 3. Required value per item: protein stability index.
1. AIIGLKSGTSHDAIFSI [SNF12]
2. GHVKPVRCVNCSKSIPK [RPS26A]
3. DSSTTSSNSQQSTPQPD [ITC1]

a:
1. 2.96
2. 3.06
3. 2.95

====

Exercise: state measured protein stability index for each of the sequences provided.
- experiment summary: protein stability index of a GFP-peptide fusion (yeast GPS) (PSI 1-4); higher = more stable; sorted into four equal gates, so the index is relative within each strain
- condition notes: ubr1∆
Numbers only.

Past entries and their recorded results:
CLMRSLHKLELKAKNQE [DSN1] :: 1.16
NTIRQNVTSSGDHNKLR [YML103C/NUP188] :: 2.98
KMYSDDTLKDISTSFCF [BRN1] :: 3.22
KSKSSLDGKFSLFHTAV [RPN2] :: 2.77
KKNPNWLEEYHPKLIKN [FAS1] :: 2.14
LKEPVEDIIKRTSPIDN [NUT2] :: 3.2
ILNHIGQLTGIYRYKYK [PRP8] :: 2.03

Query sequence follows.
q: Given QIRSADEPMTTFYKCVN [RPC11] , respond with its protein stability index.
a: 2.77

====

- experiment summary: protein stability index of a GFP-peptide fusion (yeast GPS) (PSI 1-4); higher = more stable; sorted into four equal gates, so the index is relative within each strain
- condition notes: pdr5∆
Exercise: state measured protein stability index for each of the sequences provided.

Past entries and their recorded results:
YSPSNEISISFDVNNID [YDL116W/NUP84] :: 2.62
RTLTAVHDKVLEDMVFP [RPS7B] :: 3.09
SLDAREANFDLINIDTS [RPC40] :: 3.22
KGDINPEVSMIRDIREK [RPB2] :: 2.36
SGVMDKSVLGDGKKHSV [RPO31] :: 3.71

Count: 2. Required value per item: protein stability index.
1. TEAEETSIHSTISILAA [RRP43]
2. ETEEIDPELLRSYIFGG [RPL5]

a:
[1.63, 3.44]

Count: 6. Required value per item: protein stability index.
1. QIFKVAGENAPSIVFID [RPT2]
2. HRVAENWRKQKGIDSVV [RPL32]
3. VPPMKLAYSKIVNGQTF [YMR129W/POM152]
4. FLKLVLSESPVDFEKFE [SIN4]
5. QSTQTDLEKTERIVVSY [SMC2]
6. EATSNTNSEDKLSKVQL [MED4]

a:
[1.2, 2.61, 1.48, 2.69, 2.94, 2.92]

Count: 6. Required value per item: protein stability index.
1. FGAKMSRTLILSILNEI [SIN4]
2. LIEKEIQPKITELKKKL [SMC1]
3. PEYEKAMQYVCGDSIIC [SMC1]
4. EDTLSGYDPIVSTRAID [PRP28]
5. YQVEYAFKATNQTNINS [SCL1]
6. QENSSKIITLDLSNYAE [SMC1]

a:
[1.42, 2.91, 2.27, 2.67, 3.19, 3.34]

====

- experiment summary: protein stability index of a GFP-peptide fusion (yeast GPS) (PSI 1-4); higher = more stable; sorted into four equal gates, so the index is relative within each strain
- condition notes: pdr5∆
result type: protein stability index
One number for each entry.

Past entries and their recorded results:
NKEMHTDLGKDIPFFPS [SSN2] :: 2.01
KSRGSDLQYLGEFSGKN [RRP6] :: 3.34
NVEPTENAYKSENAPSA [YAR002W/NUP60] :: 3.02
GNGKLSEHFLYLAKELN [RPN1] :: 2.19
DHASIRRGYQVYREVCA [CYT1] :: 1.5

Count: 3. Required value per item: protein stability index.
1. PQYNMNMGMNNMNNGGK [PGD1]
2. KQEQEEKIKSKKINRRN [YCG1]
3. MKLDDSSKTRNVLNRIQ [ITC1]

a:
1. 3.48
2. 2.87
3. 1.3

Count: 2. Required value per item: protein stability index.
1. MDAYSTRPLTLSHGSLE [FAS1]
2. DDSRNPDCKIKIAHGTT [PRE2]

a:
1. 3.15
2. 2.77

Count: 3. Required value per item: protein stability index.
1. NGKDNNNESNKNNNGDE [MED2]
2. GNDNLIKAPTVAADGKL [YLR335W/NUP2]
3. TSNDASNKKETKKKRKP [ITC1]

a:
3.17
2.93
3.25

src = the supplement of paper PMC9732359
